B1: Azoarcus group I ribozyme (parent)
chain: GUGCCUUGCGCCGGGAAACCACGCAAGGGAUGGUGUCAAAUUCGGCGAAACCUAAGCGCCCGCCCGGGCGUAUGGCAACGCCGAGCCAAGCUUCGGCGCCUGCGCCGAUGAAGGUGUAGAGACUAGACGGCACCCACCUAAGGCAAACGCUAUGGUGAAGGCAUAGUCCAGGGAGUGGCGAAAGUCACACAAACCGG

- Variants of: B1
- EXPERIMENTAL DETAILS: reverse-splicing fitness (ratio to wild type); higher = more active; in vitro selection; Mg2+ level not given
Param threshold (0.007) applies to reverse-splicing fitness; output met when value >= threshold, not met when value < threshold.

QUERY: Say whether A111U A120U A145G C150U C169G shows reverse-splicing fitness of 0.007 or more.
RESULT: met

QUERY: Say whether C82A A145G C169G U176C shows reverse-splicing fitness of 0.007 or more.
RESULT: met

QUERY: Say whether C82A A111U A120C A145C C150G C169G U176G shows reverse-splicing fitness of 0.007 or more.
RESULT: not met

QUERY: Say whether C82U A111U A120U U176G shows reverse-splicing fitness of 0.007 or more.
RESULT: not met

QUERY: Say whether A111C A120U A145G C169U shows reverse-splicing fitness of 0.007 or more.
RESULT: met

QUERY: Say whether C82A A120U A145U C150G C169A U176G shows reverse-splicing fitness of 0.007 or more.
RESULT: not met

QUERY: Say whether C82U A111U A120U A145G C150G U176G shows reverse-splicing fitness of 0.007 or more.
RESULT: not met

QUERY: Say whether A111U A145G C150A C169G shows reverse-splicing fitness of 0.007 or more.
RESULT: met

QUERY: Say whether C82A A145U C150U U176G shows reverse-splicing fitness of 0.007 or more.
RESULT: met

QUERY: Say whether C82G A120G A145G C150G U176C shows reverse-splicing fitness of 0.007 or more.
RESULT: met

QUERY: Say whether C82A A111C A120C A145G C150A C169G shows reverse-splicing fitness of 0.007 or more.
RESULT: met

QUERY: Say whether A111C A120U A145G C150U shows reverse-splicing fitness of 0.007 or more.
RESULT: met

QUERY: Say whether C82G A120G A145G C150G C169U U176C shows reverse-splicing fitness of 0.007 or more.
RESULT: met

QUERY: Say whether C82U A111C A120U A145G C150U C169U U176G shows reverse-splicing fitness of 0.007 or more.
RESULT: not met

QUERY: Say whether C82A A111U A120G A145U C150A C169A U176G shows reverse-splicing fitness of 0.007 or more.
RESULT: not met

QUERY: Say whether C82U A111G A145C C169A U176A shows reverse-splicing fitness of 0.007 or more.
RESULT: met

QUERY: Say whether C82G A111G A145C C150U C169A U176A shows reverse-splicing fitness of 0.007 or more.
RESULT: met

QUERY: Say whether C82A A111C A120U A145G C150G C169A shows reverse-splicing fitness of 0.007 or more.
RESULT: met

QUERY: Say whether C82A A145G C150G C169A U176C shows reverse-splicing fitness of 0.007 or more.
RESULT: met

QUERY: Say whether C82G A111C A145G shows reverse-splicing fitness of 0.007 or more.
RESULT: met

QUERY: Say whether C82U A111C A120U A145U C150A C169U shows reverse-splicing fitness of 0.007 or more.
RESULT: not met

QUERY: Say whether A111U A120U A145U C150A C169G U176C shows reverse-splicing fitness of 0.007 or more.
RESULT: not met

QUERY: Say whether A111C A120U C150A C169A shows reverse-splicing fitness of 0.007 or more.
RESULT: not met

QUERY: Say whether C82U A111U A145C C150U C169U U176A shows reverse-splicing fitness of 0.007 or more.
RESULT: met

QUERY: Say whether C82U A120G A145G C150U C169G U176A shows reverse-splicing fitness of 0.007 or more.
RESULT: met

QUERY: Say whether C82A A111C A120G A145G U176C shows reverse-splicing fitness of 0.007 or more.
RESULT: met

QUERY: Say whether C82A A111U A120U A145U C150A C169A U176A shows reverse-splicing fitness of 0.007 or more.
RESULT: not met

QUERY: Say whether C82U A111C A120G A145U C150G U176A shows reverse-splicing fitness of 0.007 or more.
RESULT: met

QUERY: Say whether C82U A111G C150U C169A U176C shows reverse-splicing fitness of 0.007 or more.
RESULT: met

QUERY: Say whether A120G A145C C150G C169A U176A shows reverse-splicing fitness of 0.007 or more.
RESULT: met

QUERY: Say whether C82A A111G A120U C150U C169A U176G shows reverse-splicing fitness of 0.007 or more.
RESULT: not met

QUERY: Say whether C82G A111C A120U A145C C150U C169U shows reverse-splicing fitness of 0.007 or more.
RESULT: not met

QUERY: Say whether A145U C150G C169G shows reverse-splicing fitness of 0.007 or more.
RESULT: met

QUERY: Say whether A111U A145G C150G C169G U176C shows reverse-splicing fitness of 0.007 or more.
RESULT: met

QUERY: Say whether C82A A111C A120U C150U C169G U176A shows reverse-splicing fitness of 0.007 or more.
RESULT: not met

QUERY: Say whether C82U A111U A120U C150U C169U shows reverse-splicing fitness of 0.007 or more.
RESULT: not met

QUERY: Say whether C82G A111G A120U C150G U176A shows reverse-splicing fitness of 0.007 or more.
RESULT: not met

QUERY: Say whether C82G A111G A120G A145C C150U C169A shows reverse-splicing fitness of 0.007 or more.
RESULT: met

QUERY: Say whether C82U A145C U176C shows reverse-splicing fitness of 0.007 or more.
RESULT: met

QUERY: Say whether C82A A111G A145G C150U U176G shows reverse-splicing fitness of 0.007 or more.
RESULT: met

QUERY: Say whether A111C C150G C169U shows reverse-splicing fitness of 0.007 or more.
RESULT: met

QUERY: Say whether C82U A111C A120C A145C C169G U176A shows reverse-splicing fitness of 0.007 or more.
RESULT: met

QUERY: Say whether C82A A111U A120C A145C C169A U176C shows reverse-splicing fitness of 0.007 or more.
RESULT: met

QUERY: Say whether A111U A120U A145G C150A C169U U176C shows reverse-splicing fitness of 0.007 or more.
RESULT: not met

QUERY: Say whether C82A A120G A145G C150U C169G U176A shows reverse-splicing fitness of 0.007 or more.
RESULT: met
